Target: human prostanoid EP4 receptor (Homo sapiens, UniProt P35408)
Construct: expressed in transfected cells
Sequence (P35408 whole entry): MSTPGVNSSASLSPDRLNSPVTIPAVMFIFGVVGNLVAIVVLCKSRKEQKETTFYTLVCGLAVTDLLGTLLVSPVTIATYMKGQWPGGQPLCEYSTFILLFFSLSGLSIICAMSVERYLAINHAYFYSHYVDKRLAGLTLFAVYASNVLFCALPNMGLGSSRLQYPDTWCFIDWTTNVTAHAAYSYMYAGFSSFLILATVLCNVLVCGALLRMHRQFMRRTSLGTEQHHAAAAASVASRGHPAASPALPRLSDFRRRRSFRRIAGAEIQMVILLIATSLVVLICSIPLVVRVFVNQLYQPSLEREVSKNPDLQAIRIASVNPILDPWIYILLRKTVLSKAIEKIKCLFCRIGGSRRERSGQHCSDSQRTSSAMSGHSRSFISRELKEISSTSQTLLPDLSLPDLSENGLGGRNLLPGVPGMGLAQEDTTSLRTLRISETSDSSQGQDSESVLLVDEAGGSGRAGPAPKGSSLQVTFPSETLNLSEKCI
Assay: FLIPR Ca2+ signaling PG antagonist assay, EP4 stable cell line
Assay type: cell-based
Details: HEK-293 EBNA cells, human recombinant EP4 with chimeric Gqs; standard agonist PGE2
# Kb annotations
State the answer as a number, implicitly in nM.

CC(C)(C)COc1ccc(Br)cc1Cn1ncc2cc(C(=O)O)ccc21 | 10
CCC(CC)COc1ccc(Br)cc1Cn1ccc2ccc(C(=O)O)cc21 | 6000
CCC(CC)COc1ccc(Br)cc1Cn1ccc2cc(C(=O)O)ccc21 | 130

Consider the compound "CCC(CC)COc1ccc(Cl)cc1Cn1ccc2cc(C(=O)O)ccc21" and give its recorded Kb.
70

###

# Kb annotations
Target: human prostanoid EP1 receptor (Homo sapiens, UniProt P34995)
Construct: expressed in transfected cells
Sequence (P34995 whole entry): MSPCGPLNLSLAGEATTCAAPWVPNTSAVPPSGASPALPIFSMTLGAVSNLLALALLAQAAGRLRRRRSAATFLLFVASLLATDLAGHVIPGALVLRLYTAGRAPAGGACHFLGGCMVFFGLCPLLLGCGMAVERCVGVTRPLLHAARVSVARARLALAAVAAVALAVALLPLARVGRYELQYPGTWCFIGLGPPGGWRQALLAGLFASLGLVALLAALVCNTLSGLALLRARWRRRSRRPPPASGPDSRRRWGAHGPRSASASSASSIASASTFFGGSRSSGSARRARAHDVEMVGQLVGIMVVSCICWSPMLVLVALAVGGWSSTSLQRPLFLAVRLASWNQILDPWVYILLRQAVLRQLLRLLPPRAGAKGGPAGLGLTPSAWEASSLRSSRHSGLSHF
Experiment: FLIPR Ca2+ signaling PG antagonist assay, EP1 stable cell line
Type: cell-based
Settings: HEK-293 EBNA cells, human recombinant EP1, no exogenous G-protein; standard agonist PGE2
Description: The above compounds were tested for PG antagonist activity as follows using human recombinant prostanoid receptor (DP1, EP1-4, FP, IP and TP) stable cell lines: In order to measure the response of Gs and Gi coupled prostanoid receptors as a Ca^2+ signal, chimeric G protein cDNAs were used. […] Ca^2+ signaling studies were performed using a FLIPR TETRA system (Molecular Devices, Sunnyvale, Calif., USA) in the 384-format. […] Assay plates were read for 3.5 minutes using the FLIPR^TETRA. […]

CCC(CC)COc1ccc(Cl)cc1Cn1ncc2cc(C(=O)O)ccc21 | 140 nM
Cc1cc2cc(C(=O)O)ccc2n1Cc1cc(Br)ccc1OCC(C)C | 50 nM
O=C(O)c1ccc2c(cnn2Cc2cc(Cl)ccc2OCC2CCCC2)c1 | 50 nM
O=C(O)c1ccc2c(cnn2Cc2cc(Br)ccc2OCC2CC2)c1 | 190 nM

Give Kb only, for "CC(C)COc1c(F)cc(Cl)cc1Cn1ncc2cc(C(=O)O)ccc21" , using human prostanoid EP1 receptor (Homo sapiens, UniProt P34995) data.
2000 nM

###

# Kb annotations
Biological target: human prostanoid EP2 receptor (Homo sapiens)
Construct: expressed in transfected cells
Sequence (P43116 whole entry): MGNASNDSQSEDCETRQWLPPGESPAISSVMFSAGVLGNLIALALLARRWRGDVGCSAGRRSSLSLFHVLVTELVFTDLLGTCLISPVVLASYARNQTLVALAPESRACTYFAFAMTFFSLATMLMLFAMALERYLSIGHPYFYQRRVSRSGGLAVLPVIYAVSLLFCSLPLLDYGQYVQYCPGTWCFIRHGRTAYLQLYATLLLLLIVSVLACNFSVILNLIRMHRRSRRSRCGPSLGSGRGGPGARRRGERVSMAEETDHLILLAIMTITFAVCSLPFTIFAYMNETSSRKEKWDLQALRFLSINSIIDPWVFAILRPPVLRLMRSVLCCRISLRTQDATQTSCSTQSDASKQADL
Experiment: FLIPR Ca2+ signaling PG antagonist assay, EP2 stable cell line
Format: cell-based
Conditions: HEK-293 EBNA cells, human recombinant EP2 with chimeric Gqs; standard agonist PGE2
State the answer as a number, implicitly in µM.

Some solved entries appear below for comparison.
O=C(O)c1ccc2c(cnn2Cc2cc(Cl)ccc2OCc2ccc(Cl)cc2)c1 | 3.2
O=C(O)c1ccc2c(cnn2Cc2cc(Br)ccc2OCc2ccccc2)c1 | 7.9
CCc1nn(Cc2cc(Br)ccc2OCC(C)C)c2ccc(C(=O)O)cc12 | 3.1
Cc1nn(Cc2cc(Br)ccc2OCC(C)C)c2ccc(C(=O)O)cc12 | 3.5
Cc1nn(Cc2cc(Cl)ccc2OCC(C)C)c2ccc(C(=O)O)cc12 | 4.5

Consider the compound "CCC(CC)COc1ccc(Cl)cc1Cn1ncc2c(C(=O)O)cccc21" and give its recorded Kb.
2.1

Consider the compound "O=C(O)c1ccc2c(cnn2Cc2cc(Cl)ccc2OCC2CC2)c1" and give its recorded Kb.
2

Consider the compound "CCc1nn(Cc2cc(Br)ccc2OCC(CC)CC)c2ccc(C(=O)O)cc12" and give its recorded Kb.
6.5

###

# Kb annotations
Molecular target: human prostanoid DP1 receptor (Homo sapiens)
Construct: expressed in transfected cells
Sequence (Q13258 whole entry): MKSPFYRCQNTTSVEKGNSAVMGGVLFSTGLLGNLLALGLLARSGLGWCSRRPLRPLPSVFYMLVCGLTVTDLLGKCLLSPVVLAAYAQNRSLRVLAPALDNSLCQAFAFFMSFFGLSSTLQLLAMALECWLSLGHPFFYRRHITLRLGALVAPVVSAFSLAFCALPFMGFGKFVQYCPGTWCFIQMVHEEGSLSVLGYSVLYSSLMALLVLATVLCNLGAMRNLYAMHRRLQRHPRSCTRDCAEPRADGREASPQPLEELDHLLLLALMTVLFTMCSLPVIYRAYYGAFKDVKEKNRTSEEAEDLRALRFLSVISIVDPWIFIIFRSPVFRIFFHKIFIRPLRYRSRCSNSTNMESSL
Experiment: FLIPR Ca2+ signaling PG antagonist assay, DP1 stable cell line
Type: cell-based
Settings: HEK-293 EBNA cells, human recombinant DP1 with chimeric Gqs; standard agonist BW 245C; read-out: DP (Kb, PG antagonist activity)

O=C(O)c1ccc2cn(Cc3cc(Br)ccc3OCC3CCCC3)nc2c1 | 2.8 µM
CCC(CC)COc1ccc(Cl)cc1Cn1ncc2cc(C(N)=O)ncc21 | 5.8 µM
CC(C)COc1cc(Cl)c(Cl)cc1Cn1ncc2cc(C(=O)O)ccc21 | 3.5 µM
CC1(COc2ccc(Br)cc2Cn2ncc3cc(C(=O)O)ccc32)CC1 | 1.2 µM
Cc1ccc(OCC(C)C)c(Cn2ncc3cc(C(=O)O)ccc32)n1 | 2.4 µM

Give Kb only, for "CC(C)COc1ccc(Br)cc1Cn1cnc2cc(C(=O)O)ccc21" , using human prostanoid DP1 receptor (Homo sapiens) data.
2 µM

Give Kb only, for "CC(C)COc1ccc(Cl)cc1Cn1cc2c(C(=O)O)cccc2n1" , using human prostanoid DP1 receptor (Homo sapiens) data.
1.3 µM

Give Kb only, for "CC(C)COc1ccc(OC(F)(F)F)cc1Cn1ncc2cc(C(=O)O)cnc21" , using human prostanoid DP1 receptor (Homo sapiens) data.
1.8 µM

Give Kb only, for "O=C(O)c1cccc2c1cnn2Cc1cc(Cl)ccc1OCc1ccc(Cl)cc1" , using human prostanoid DP1 receptor (Homo sapiens) data.
1 µM

Give Kb only, for CCC(CC)COc1ccc(Cl)cc1Cn1ncc2ccc(C(=O)O)cc21 [Example 6] , using human prostanoid DP1 receptor (Homo sapiens) data.
7.1 µM

Give Kb only, for "CCC(CC)COc1ccc(Cl)cc1Cn1ncc2cc(C(=O)O)ccc21" , using human prostanoid DP1 receptor (Homo sapiens) data.
1.3 µM

Give Kb only, for "CCc1nn(Cc2cc(Br)ccc2OCC(C)C)c2ccc(C(=O)O)cc12" , using human prostanoid DP1 receptor (Homo sapiens) data.
0.26 µM

Give Kb only, for "CCc1nn(Cc2cc(Br)ccc2OCC(CC)CC)c2ccc(C(=O)O)cc12" , using human prostanoid DP1 receptor (Homo sapiens) data.
1.5 µM

Give Kb only, for "CC(C)COc1ccc(Br)cc1Cn1cc2cc(C(=O)O)ccc2n1" , using human prostanoid DP1 receptor (Homo sapiens) data.
3.5 µM

Give Kb only, for "Cc1nn(Cc2cc(Br)ccc2OCC2(C)CC2)c2ccc(C(=O)O)cc12" , using human prostanoid DP1 receptor (Homo sapiens) data.
0.73 µM

Give Kb only, for "CC(C)COc1ccc(OC(F)F)cc1Cn1ncc2cc(C(=O)O)ccc21" , using human prostanoid DP1 receptor (Homo sapiens) data.
1.8 µM

Give Kb only, for "CCC(CC)COc1ccc(OC(F)(F)F)cc1Cn1cc(C)c2cc(C(=O)O)ccc21" , using human prostanoid DP1 receptor (Homo sapiens) data.
3.6 µM

Give Kb only, for "Cc1cc2cc(C(=O)O)ccc2n1Cc1cc(Br)ccc1OCC(C)C" , using human prostanoid DP1 receptor (Homo sapiens) data.
≥ 10 µM

Give Kb only, for "CCC(CC)COc1ccc(Cl)cc1Cn1nc(C)c2cc(C(=O)O)ccc21" , using human prostanoid DP1 receptor (Homo sapiens) data.
0.9 µM

Give Kb only, for "Cc1cn(Cc2cc(OC(F)(F)F)ccc2OCC(C)C)c2ccc(C(=O)O)cc12" , using human prostanoid DP1 receptor (Homo sapiens) data.
1.3 µM

Give Kb only, for "O=C(O)c1ccc2c(cnn2Cc2cc(Cl)ccc2OCc2ccc(Cl)cc2)c1" , using human prostanoid DP1 receptor (Homo sapiens) data.
1.2 µM

Give Kb only, for "CCC(CC)COc1ccc(Br)cc1Cn1cnc2cc(C(=O)O)ccc21" , using human prostanoid DP1 receptor (Homo sapiens) data.
3.8 µM

Give Kb only, for "O=C(O)c1ccc2c(cnn2Cc2cc(C(F)(F)F)ccc2OCc2ccc(Cl)cc2)c1" , using human prostanoid DP1 receptor (Homo sapiens) data.
1.7 µM

Give Kb only, for CCC(CC)COc1ccc(Cl)cc1Cn1ncc2ccc(C(=O)O)cc21 [Example 46] , using human prostanoid DP1 receptor (Homo sapiens) data.
2.5 µM

Give Kb only, for "O=C(O)c1ccc2c(cnn2Cc2cc(Cl)ccc2OCC2CCCC2)c1" , using human prostanoid DP1 receptor (Homo sapiens) data.
0.44 µM

###

Molecular target: human prostanoid EP1 receptor (Homo sapiens)
Construct: expressed in transfected cells
Experiment: FLIPR Ca2+ signaling PG antagonist assay, EP1 stable cell line
Type: cell-based
Conditions: HEK-293 EBNA cells, human recombinant EP1, no exogenous G-protein; standard agonist PGE2
parameter: Kb (nM)
State the answer as a number, implicitly in nM.

O=C(O)c1ccc2cnn(Cc3cc(Br)ccc3OCC3CCCC3)c2c1 | 240
CC(C)(O)COc1ccc(Br)cc1Cn1ncc2cc(C(=O)O)ccc21 | 1500
Cc1nn(Cc2cc(OC(F)(F)F)ccc2OCC(C)C)c2ccc(C(=O)O)cc12 | 16
CC(C)COc1ccc(OC(F)(F)F)cc1Cn1ncc2cc(C(=O)O)ccc21 | 30
CC(C)COc1ccc(Br)cc1Cn1ccc2cc(C(=O)O)cnc21 | 10
CCc1nn(Cc2cc(Br)ccc2OCC(C)C)c2ccc(C(=O)O)cc12 | 5

Consider the compound "CCC(CC)Oc1ccc(Br)cc1Cn1ncc2cc(C(=O)O)ccc21" and give its recorded Kb.
70

Consider the compound "CCC(CC)COc1ccc(Br)cc1Cn1ccc2ccc(C(=O)O)cc21" and give its recorded Kb.
200

Consider the compound "O=C(O)c1cccc2c1cnn2Cc1cc(Cl)ccc1OCc1ccc(Cl)cc1" and give its recorded Kb.
60

Consider the compound "CC(C)COc1cc(Cl)c(Cl)cc1Cn1ncc2cc(C(=O)O)ccc21" and give its recorded Kb.
540

Consider the compound "Cc1nn(Cc2cc(Cl)ccc2OCC(C)C)c2ncc(C(=O)O)cc12" and give its recorded Kb.
180

Consider the compound "Cc1cn(Cc2cc(OC(F)(F)F)ccc2OCC(C)C)c2ccc(C(=O)O)cc12" and give its recorded Kb.
20

Consider the compound "CCc1nn(Cc2cc(Br)ccc2OCC(CC)CC)c2ccc(C(=O)O)cc12" and give its recorded Kb.
40
